Entries annotated with measured growth
Tested on: HCC-2998 colon
Assay: NCI-60 one-dose screen, 48 h (100 = growth as untreated, 0 = no growth, -100 = all killed)
Details: 10 µM unless noted
Description: Growth inhibition of the HCC-2998 human tumor cell line is measured as a screen for anti-cancer activity. Cells are grown in 96 well plates and exposed to the test compound for 48 hours. Compounds are tested at a single concentration, which is 10^-5 M for most compounds. The reported endpoint is percent growth (GI% or GIPRCNT), where numbers from 0 - 100% represent growth inhibition, and numbers from -100% - 0 represent cell death. For example, a value of 40 represents 60% growth inhibition. […]
About 83,000 compounds went through this panel and 20% of them were active in at least one assay; those are over-represented in the sample as a whole.

# compound, readout-unit, growth
records = [
    ("CONC1=Nc2cc(NC(N)=NCc3ccccc3)c(N(C)C3CCCCC3)cc2OC1", "%", 22.1),
    ("COc1ccc(Cn2cc(C(=O)Nc3cccnc3Nc3ccccc3)nn2)cc1", "%", 88.5),
    ("O=C(c1cccc(Br)c1)N1CCN(c2ccnc3cc(Cl)ccc23)CC1", "%", 109),
    ("CCCCCCCC/C=C\\CCCCCCCCOc1ccccc1CC(=O)NCC[N+]1(C)CCOCC1", "%", 45.4),
    ("CCOC(=O)c1c(-c2ccc(C)cc2)c(C#N)c(=O)n(-c2cccc(C(F)(F)F)c2)c1N", "%", 107),
    ("O=C(NCc1ccc(Cn2c(=O)sn(-c3ccc(Cl)cc3)c2=O)cc1)OCc1ccc2c(Cl)cc(Cl)c(O)c2n1", "%", 67.9),
    ("COc1cc(/C=C(/c2ccccc2)[N+](=O)[O-])c(OC)c2c1OCO2", "%", -91),
    ("C#Cc1cc(C(=O)Nc2ccc(CN3CCN(C)CC3)c(C(F)(F)F)c2)ccc1C", "%", 90.2),
    ("CCCCCCCCn1ccc2cc(NC(=O)CN3CCN(c4nc(C)cc(N5CCCCC5)n4)CC3)ccc21", "%", 117),
    ("N#Cc1ccccc1OCC(=O)Nc1nc2c(s1)COc1ccccc1-2", "%", 103),
    ("CN1CCN(Cc2ccc(NC(=O)c3nc4ccc5[nH]ncc5c4c4c3CCCC4)cc2C(F)(F)F)CC1", "%", -80.7),
    ("N#Cc1c(-c2cccc(F)c2)cc(-c2cccnc2)[nH]c1=O", "%", 112),
    ("N#Cc1c(N)nnn1Cc1cc(=O)oc2ccc(O)cc12", "%", 110),
    ("O=C(Nc1ccc2ccccc2c1)c1cc2ccccc2cc1O", "%", 107),
    ("O=c1ccc2nc(-c3ccccn3)nn(-c3ccccc3)c-2c1", "%", 98.8),
    ("COC(=O)c1nc(-c2ccc(C)cc2)oc1S(=O)(=O)c1ccc(Cl)cc1", "%", 112),
    ("CCn1cc(C(=O)NN=C2CCCC2)c(=O)c2ccc(C)nc21", "%", 89.6),
    ("O=C1CCc2c(sc3[nH]c(=S)n(Cc4ccc(Cl)cc4)c(=O)c23)C1", "%", 4.16),
    ("CC[C@]12CN3CCc4c([nH]c5ccccc45)[C@@](C(=O)OC)(c4cc5c(cc4OC)N(C)[C@H]4[C@@](O)(C(=O)OC)[C@H](OC(C)=O)[C@]6(CC)C=CCN7CC[C@]54[C@@H]76)CC(C3)[C@H]1O2 (some centres not stated)", "%", -14.6),
    ("Cc1ccc(S(=O)(=O)OC[C@@]2(C)CC[C@]3(C)CC[C@]4(C)C(=C3C2)C=C[C@@H]2[C@@]3(C)CCCNC(C)(C)[C@@H]3CC[C@]24C)cc1", "%", -29),
    ("CCC(=O)Oc1cc(Cl)c(Cl)cc1Cl", "%", 94.8),
    ("COc1ccc(-c2cc(-c3cccc(Cl)c3)c(C#N)c(=O)[nH]2)c(OC)c1", "%", 106),
    ("O=c1c(/C=C/c2ccco2)nnc2sc(Nc3ccc(Cl)cc3)nn12", "%", 96.3),
    ("Nc1n[nH]c2cccc(C#Cc3cccc(NC(=O)c4ccc(N5CCOCC5)c(C(F)(F)F)c4)c3)c12", "%", 6.77),
    ("Cc1nnc(NS(=O)(=O)c2ccc(N=Nc3ccc(N)nc3N)cc2)s1", "%", 105),
    ("CCCCC(NC(=O)CN1C(=O)/C(=C/C(C)=C/c2ccccc2)SC1=S)C(=O)O (configuration not stated)", "%", 110),
    ("CC(=O)c1c(C)nc2ccccc2c1/C=C/c1cccc(C)c1", "%", 79.4),
    ("Nc1nc(N)c2c(n1)NC(c1cccc(Nc3ccnc4cc(C(F)(F)F)ccc34)c1)CC(c1ccc(F)cc1)=N2 (configuration not stated)", "%", 54),
    ("COc1ccc(/C(C)=C(\\c2ccc(OCCN3CCCCCC3)cc2)c2ccc(OC(=O)C3CCCCC3)cc2)cc1", "%", -79),
    ("COc1cc(-c2[nH]ncc2Nc2ccc(Cl)cc2)cc(OC)c1OC", "%", 83.4),
    ("FC(F)(F)Sc1ccc(/C=C/c2cc(/C=C/c3ccc(SC(F)(F)F)cc3)n(-c3ccccc3)n2)cc1", "%", 101),
    ("COC(=O)c1c2c(c(C)[n+]([O-])c1C)C(=O)C(NCCN1CCOCC1)=CC2=O", "%", 74.1),
    ("NS(=O)(=O)c1ccc(C(=O)N=Nc2c(O)[nH]c3c(F)cccc23)cc1", "%", 106),
    ("CC(=O)Nc1c(I)c(NC(C)=O)c(I)c(C(=O)O)c1I", "%", 106),
    ("COc1ccc(-c2csc(NC(=O)CN3CCN(CCO)CC3)n2)cc1NS(=O)(=O)c1cccc2c(N(C)C)cccc12", "%", 73.2),
    ("COc1ccc(-c2[nH]c3ccccc3c2-c2ccc(OC)cc2)cc1", "%", 32.3),
    ("[Cu+].[NH-][C@H]1C[N-]C(=O)[C@H]([C@H]2CCN=C(N)N2)[N-]C(=O)/C(=C\\NC(N)=O)[N-]C(=O)[C@H](CNC(=O)C[C@@H](N)CCCN)[N-]C(=O)[C@H](CO)[N-]C1=O", "%", 110),
]
